The entries below come with measured self-splicing fitness (ln) values attached.
- Protocol: self-splicing fitness, log relative to wild type (ln ratio); higher = more splicing; Tetrahymena group I intron in knt gene, E. coli kanamycin selection, DiMSum; sequences stand for … in CUCUCU…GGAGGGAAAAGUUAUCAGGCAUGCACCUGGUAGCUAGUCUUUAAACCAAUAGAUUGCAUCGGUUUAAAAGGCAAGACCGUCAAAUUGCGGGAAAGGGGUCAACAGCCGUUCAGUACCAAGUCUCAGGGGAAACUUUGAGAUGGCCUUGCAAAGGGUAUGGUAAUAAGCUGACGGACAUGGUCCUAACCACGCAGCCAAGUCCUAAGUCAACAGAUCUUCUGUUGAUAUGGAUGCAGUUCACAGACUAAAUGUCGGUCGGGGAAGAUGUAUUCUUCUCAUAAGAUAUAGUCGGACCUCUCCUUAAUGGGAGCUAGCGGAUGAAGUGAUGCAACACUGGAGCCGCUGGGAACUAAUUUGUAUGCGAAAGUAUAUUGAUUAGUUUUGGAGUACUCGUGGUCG;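 further: selection with 25 µg/mL kanamycin versus none on LB agar overnight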
- Details: 37 °C
Respond using a number only.

| Entry Sequence | self-splicing fitness (ln) |
| --- | --- |
| ACAGAGCAAUAUUACGGAAC | -1.97 |
| CUUCAGCAAUAUUACGCGCU | -1.96 |

Turning now to a further record.
Ask | Could you tell me which self-splicing fitness (ln) is on file for AUAUAGCAAUAUUACGAAAC ?
Reply | -2.03

----------
- Protocol: self-splicing fitness, log relative to wild type (ln ratio); higher = more splicing; Tetrahymena group I intron in knt gene, E. coli kanamycin selection, DiMSum; sequences stand for … in CUCUCU…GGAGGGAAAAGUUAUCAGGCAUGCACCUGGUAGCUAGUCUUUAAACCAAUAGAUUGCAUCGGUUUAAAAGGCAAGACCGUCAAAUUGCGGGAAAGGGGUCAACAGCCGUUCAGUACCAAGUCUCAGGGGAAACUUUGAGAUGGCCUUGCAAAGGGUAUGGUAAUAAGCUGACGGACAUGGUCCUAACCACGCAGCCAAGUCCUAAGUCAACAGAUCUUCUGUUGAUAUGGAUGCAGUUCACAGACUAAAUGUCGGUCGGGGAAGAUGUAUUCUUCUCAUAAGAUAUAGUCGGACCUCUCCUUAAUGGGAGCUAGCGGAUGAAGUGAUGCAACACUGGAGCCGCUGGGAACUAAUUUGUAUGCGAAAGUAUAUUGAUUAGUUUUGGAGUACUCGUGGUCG
- Details: 37 °C
Cut-off -2 on self-splicing fitness (ln), inclusive. At or above means fulfilled; below means not fulfilled.

Solved cases below.
| Entry Sequence | Discrete Label |
| --- | --- |
| AGAAAGCAAUAUUACGCCAA | not fulfilled |
| UGCCAGCAAUAUUACGAAAU | fulfilled |
| GACAAGCAAUAUUACGUCUC | fulfilled |
| GUCCAGCAAUAUUACGUCCA | fulfilled |
| UUUUAGCAAUAUUACGUUUA | fulfilled |
| CAACAGCAAUAUUACGACCU | fulfilled |

Ask | Determine whether this sequence has self-splicing fitness (ln) no lower than -2: GACGAGCAAUAUUACGUGAG
Reply | not fulfilled

Ask | Queued: CCAAAGCAAUAUUACGGACG
Reply | fulfilled

Ask | Queued: GUAUAGCAAUAUUACGUAAG
Reply | fulfilled

----------
- Protocol: self-splicing fitness, log relative to wild type (ln ratio); higher = more splicing; Tetrahymena group I intron in knt gene, E. coli kanamycin selection, DiMSum; sequences stand for … in CUCUCU…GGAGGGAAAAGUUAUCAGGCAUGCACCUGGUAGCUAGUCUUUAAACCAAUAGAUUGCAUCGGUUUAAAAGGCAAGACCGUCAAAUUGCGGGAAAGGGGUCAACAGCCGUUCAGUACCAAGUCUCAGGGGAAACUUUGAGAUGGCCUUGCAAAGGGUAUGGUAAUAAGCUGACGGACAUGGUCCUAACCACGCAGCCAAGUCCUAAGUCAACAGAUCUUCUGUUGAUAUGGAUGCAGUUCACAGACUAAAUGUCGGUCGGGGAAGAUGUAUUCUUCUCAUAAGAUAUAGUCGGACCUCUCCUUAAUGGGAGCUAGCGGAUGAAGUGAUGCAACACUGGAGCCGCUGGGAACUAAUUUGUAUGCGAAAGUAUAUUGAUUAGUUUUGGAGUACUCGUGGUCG
- Details: 37 °C
Cut-off -1 on self-splicing fitness (ln), inclusive. At or above means fulfilled; below means not fulfilled.

Solved cases below.
| Entry Sequence | Discrete Label |
| --- | --- |
| CCUUAGCAAUAUUACGCUUG | not fulfilled |
| UGGAAGCAAUAUUACGCUAU | not fulfilled |
| GAAGAGCAAUAUUACGGAUG | not fulfilled |
| UCAAAGCAAUAUUACGAAAU | not fulfilled |
| UUCGAGCAAUAUUACGGCUG | not fulfilled |
| GGAGAGCAAUAUUACGUGAG | not fulfilled |
| UGGAAGCAAUAUUACGCGAA | not fulfilled |
| UUCCAGCAAUAUUACGUCGU | not fulfilled |
| ACCCAGCAAUAUUACGUGGC | not fulfilled |
| UCACAGCAAUAUUACGCACG | fulfilled |

Ask | Determine whether this sequence has self-splicing fitness (ln) no lower than -1: ACCAAGCAAUAUUACGGUCG
Reply | not fulfilled

Ask | Queued: AGACAGCAAUAUUACGCUCA
Reply | fulfilled

Ask | Queued: AAAGAGCAAUAUUACGCGAA
Reply | not fulfilled

Ask | Queued: AUUGAGCAAUAUUACGCUGG
Reply | not fulfilled

Ask | Queued: AAACAGCAAUAUUACGGAGC
Reply | not fulfilled

----------
- Protocol: self-splicing fitness, log relative to wild type (ln ratio); higher = more splicing; Tetrahymena group I intron in knt gene, E. coli kanamycin selection, DiMSum; sequences stand for … in CUCUCU…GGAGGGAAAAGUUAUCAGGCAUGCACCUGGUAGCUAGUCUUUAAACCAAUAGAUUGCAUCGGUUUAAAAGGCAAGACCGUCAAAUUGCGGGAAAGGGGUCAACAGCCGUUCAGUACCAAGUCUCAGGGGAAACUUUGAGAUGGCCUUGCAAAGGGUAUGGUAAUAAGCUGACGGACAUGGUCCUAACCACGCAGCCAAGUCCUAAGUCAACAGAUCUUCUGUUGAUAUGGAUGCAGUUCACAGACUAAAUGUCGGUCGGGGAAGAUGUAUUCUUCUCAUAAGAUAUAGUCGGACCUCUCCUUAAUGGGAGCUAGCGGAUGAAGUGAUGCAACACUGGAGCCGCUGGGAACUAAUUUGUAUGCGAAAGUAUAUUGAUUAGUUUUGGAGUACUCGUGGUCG
- Details: 30 °C
Cut-off -3 on self-splicing fitness (ln), inclusive. At or above means 1.0; below means 0.0.

Solved cases below.
| Entry Sequence | Discrete Label |
| --- | --- |
| CACAAGCAAUAUUACGCGCG | 1.0 |
| UACAAGCAAUAUUACGCGCC | 1.0 |
| AAGAAGCAAUAUUACGGAAG | 1.0 |
| CCGCAGCAAUAUUACGCAGG | 1.0 |

Ask | Determine whether this sequence has self-splicing fitness (ln) no lower than -3: CGGAAGCAAUAUUACGUGCG
Reply | 1.0

Ask | Queued: GAAUAGCAAUAUUACGACAA
Reply | 1.0

Ask | Queued: GGGAAGCAAUAUUACGCCUG
Reply | 1.0

Ask | Queued: GGGUAGCAAUAUUACGGUUG
Reply | 1.0

Ask | Queued: CAGGAGCAAUAUUACGCCGU
Reply | 0.0

----------
- Protocol: self-splicing fitness, log relative to wild type (ln ratio); higher = more splicing; Tetrahymena group I intron in knt gene, E. coli kanamycin selection, DiMSum; sequences stand for … in CUCUCU…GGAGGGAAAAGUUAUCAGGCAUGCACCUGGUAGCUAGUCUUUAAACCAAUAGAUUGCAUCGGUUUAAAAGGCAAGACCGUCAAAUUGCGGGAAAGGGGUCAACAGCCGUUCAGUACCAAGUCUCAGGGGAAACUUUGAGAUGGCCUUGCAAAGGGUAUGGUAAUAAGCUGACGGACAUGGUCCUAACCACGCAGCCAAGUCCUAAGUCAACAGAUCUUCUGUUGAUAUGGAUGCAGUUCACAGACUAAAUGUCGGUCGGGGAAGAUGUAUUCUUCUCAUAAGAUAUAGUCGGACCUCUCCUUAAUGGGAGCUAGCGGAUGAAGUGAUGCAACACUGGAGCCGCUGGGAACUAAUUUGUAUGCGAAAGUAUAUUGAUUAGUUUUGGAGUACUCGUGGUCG
- Details: 37 °C
Experimental Readout: self-splicing fitness (ln)
Respond using a number only.

// below: answered sequences
| Entry Sequence | Experimental Readout | Observed Measurement |
| --- | --- | --- |
| GAAUAGCAAUAUUACGACAA | self-splicing fitness (ln) | -0.329 |
| CCCGAGCAAUAUUACGUGUA | self-splicing fitness (ln) | -2.97 |

Ask | Could you tell me which self-splicing fitness (ln) is on file for CCUCAGCAAUAUUACGUGUA ?
Reply | -2.16

Ask | Queued: ACAAAGCAAUAUUACGGAUA
Reply | -1.68

Ask | Queued: GGGGAGCAAUAUUACGUUGA
Reply | -2.27

Ask | Queued: GAAGAGCAAUAUUACGGGGA
Reply | -0.71

Ask | Queued: GAACAGCAAUAUUACGUGAG
Reply | -0.235

Ask | Queued: UAGGAGCAAUAUUACGGCUG
Reply | 0.65

Ask | Queued: UAGAAGCAAUAUUACGACCU
Reply | -1.35

Ask | Queued: CAUGAGCAAUAUUACGAGAU
Reply | -1.82

Ask | Queued: GGGGAGCAAUAUUACGUGAG
Reply | -1.36

Ask | Queued: UUAGAGCAAUAUUACGCAUA
Reply | -0.817

Ask | Queued: CAUAAGCAAUAUUACGACUA
Reply | -0.427

Ask | Queued: GUUUAGCAAUAUUACGCAUG
Reply | -0.4
